# IC50 values compiled below
system: HepG2; assay: Antiproliferative activity against human HepG2 cells incubated for 48 hrs by MTT assay; assay type: functional, cell-based; conditions: HepG2, 48 h

Consider the worked cases shown below.
1) Cc1nc(N(C)c2ccc(C(F)(F)F)cc2)c2sccc2n1 > 100 nM
2) Cc1nc(N(C)c2cc(Cl)cc(Cl)c2)c2sccc2n1 > 100 nM
3) Cc1nc(N(C)c2ccc3c(ccn3C)c2)c2sccc2n1 9.37 nM
4) Cc1cccc(N(C)c2nc(C)nc3ccsc23)c1 > 100 nM
5) COc1cc2c(c(OC)c1OC)-c1ccc(OC)c(=O)cc1[C@@H](NC(C)=O)CC2 5 nM

Prompt: Identify measured IC50 associated with Cc1nc(N(C)c2cccc(C(F)(F)F)c2)c2sccc2n1
Completion: > 100 nM

----------
tested on: HepG2; experiment: Antiproliferative activity against human HepG2 cells incubated for 48 hrs by MTT assay; format: functional, cell-based; details: HepG2, 48 h
pIC50: −log10 of the molar value.
readoutName: pIC50

Consider the worked cases shown below.
1) COc1ccc(N(C)c2nc(C)nc3ccsc23)cc1 7.73
2) Cc1nc(N(C)c2ccc(OC(C)C)cc2)c2sccc2n1 < 7.00
3) Cc1nc(N(C)c2ccccc2C)c2sccc2n1 < 7.00
4) Cc1nc(N(C)c2ccc3ccccc3c2)c2sccc2n1 7.74
5) Cc1nc(N(C)c2ccc(C(C)C)cc2)c2sccc2n1 < 7.00

Prompt: Identify measured pIC50 associated with COc1cc(OC)cc(N(C)c2nc(C)nc3ccsc23)c1
Completion: < 7.00

Prompt: Identify measured pIC50 associated with COc1ccc(N(C)c2nc(C)nc3ccsc23)cc1OC
Completion: < 7.00

Prompt: Identify measured pIC50 associated with COc1cccc(N(C)c2nc(C)nc3ccsc23)c1
Completion: < 7.00

Prompt: Identify measured pIC50 associated with Cc1nc(N(C)c2cccc3ccccc23)c2sccc2n1
Completion: < 7.00

Prompt: Identify measured pIC50 associated with COc1ccc(N(C)c2nc(C)nc3ccsc23)cc1C(F)(F)F
Completion: < 7.00

Prompt: Identify measured pIC50 associated with COc1cc(N(C)c2nc(C)nc3ccsc23)cc(OC)c1OC
Completion: < 7.00

Prompt: Identify measured pIC50 associated with CN(c1ccc2c(ccn2C)c1)c1ncnc2ccsc12
Completion: < 7.00

----------
# IC50 values compiled below
tested on: HeLa; experiment: Antiproliferative activity against human HeLa cells incubated for 48 hrs by MTT assay; format: functional, cell-based

1) COc1cc2c(c(OC)c1OC)-c1ccc(OC)c(=O)cc1[C@@H](NC(C)=O)CC2 9.35 nM

Prompt: Output reported IC50 of the compound Cc1cccc(N(C)c2nc(C)nc3ccsc23)c1 on HeLa.
Completion: > 100 nM

Prompt: Output reported IC50 of the compound Cc1nc(N(C)c2ccc(OC(C)C)cc2)c2sccc2n1 on HeLa.
Completion: > 100 nM

Prompt: Output reported IC50 of the compound COc1cc(N(C)c2nc(C)nc3ccsc23)cc(OC)c1OC on HeLa.
Completion: > 100 nM

Prompt: Output reported IC50 of the compound COc1ccc(N(C)c2nc(C)nc3ccsc23)cc1 on HeLa.
Completion: 18.8 nM

Prompt: Output reported IC50 of the compound Cc1nc(N(C)c2cccc(C(F)(F)F)c2)c2sccc2n1 on HeLa.
Completion: > 100 nM

Prompt: Output reported IC50 of the compound COc1cccc(N(C)c2nc(C)nc3ccsc23)c1 on HeLa.
Completion: > 100 nM

Prompt: Output reported IC50 of the compound CN(c1ccc2c(ccn2C)c1)c1ncnc2ccsc12 on HeLa.
Completion: > 100 nM

Prompt: Output reported IC50 of the compound Cc1nc(N(C)c2ccc(C(C)C)cc2)c2sccc2n1 on HeLa.
Completion: > 100 nM

Prompt: Output reported IC50 of the compound Cc1nc(N(C)c2ccc(Cl)c(Cl)c2)c2sccc2n1 on HeLa.
Completion: > 100 nM

Prompt: Output reported IC50 of the compound Cc1nc(N(C)c2cccc3ccccc23)c2sccc2n1 on HeLa.
Completion: > 100 nM
